Tested on: MOLT-4 leukemia
Test: NCI-60 one-dose screen, 48 h (100 = growth as untreated, 0 = no growth, -100 = all killed)
Conditions: 10 µM
Compounds without any hit were thinned out: in the full panel of roughly 83,000, 20% have a hit.
Label True when growth is strictly below 50%; otherwise label False.

Study these solved cases before continuing.
>>> print(df.to_string())
                                   compound           target  class
0  CCN(CC)CCOc1nc2ccccc2c2c1-c1ccc(OC)cc1C2=O  MOLT-4 leukemia   True
1  COc1cc(-c2cc(-c3cc4c([nH]c5ccccc54)c(-c4cc(OC)c(OC)c(OC)c4)n3)cc(-c3ccccc3)n2)cc(OC)c1OC  MOLT-4 leukemia   True
2  COc1ccc2c(c1)C(=O)c1c-2c(OCCN(C)C)nc2ccccc12  MOLT-4 leukemia   True
3  O=C1/C(=C\c2ccc(Cl)cc2)CN(C(=S)Nc2ccccc2)C/C1=C\c1ccc(Cl)cc1  MOLT-4 leukemia   True
4  COc1cc(-c2nn3c(/C=C4/C(=O)Nc5ccccc54)c(-c4ccc(C)cc4)nc3s2)cc(OC)c1OC  MOLT-4 leukemia   True

Req: Consider COc1ccc(/C=C/C(C)=N/OCC(=O)O)cc1 . Does its growth lie strictly below 50%?
Resp: False

Req: Consider CC1=C(N2CCOCC2)C(N2CCOCC2)=C(C)C(=O)C1=O . Does its growth lie strictly below 50%?
Resp: False

Req: Consider C#Cc1ccc(-n2c(/C=C/c3ccc4ccccc4n3)nc3ncccc3c2=O)cc1 . Does its growth lie strictly below 50%?
Resp: True

Req: Consider CCN1CCCC1CNC(=O)c1ncc(-c2ccc(C(F)(F)F)cc2)c(NC2CCCCCC2)n1 (centres undefined) . Does its growth lie strictly below 50%?
Resp: False
